For each of the compounds below, state its pIC50.
study-system: N-type Ca^2+ Channel (Homo sapiens)
Construct: host or cells: IMR-32 cells differentiated with dibutyryl cAMP and bromodeoxyuridine
Sequence (Q00975 whole entry): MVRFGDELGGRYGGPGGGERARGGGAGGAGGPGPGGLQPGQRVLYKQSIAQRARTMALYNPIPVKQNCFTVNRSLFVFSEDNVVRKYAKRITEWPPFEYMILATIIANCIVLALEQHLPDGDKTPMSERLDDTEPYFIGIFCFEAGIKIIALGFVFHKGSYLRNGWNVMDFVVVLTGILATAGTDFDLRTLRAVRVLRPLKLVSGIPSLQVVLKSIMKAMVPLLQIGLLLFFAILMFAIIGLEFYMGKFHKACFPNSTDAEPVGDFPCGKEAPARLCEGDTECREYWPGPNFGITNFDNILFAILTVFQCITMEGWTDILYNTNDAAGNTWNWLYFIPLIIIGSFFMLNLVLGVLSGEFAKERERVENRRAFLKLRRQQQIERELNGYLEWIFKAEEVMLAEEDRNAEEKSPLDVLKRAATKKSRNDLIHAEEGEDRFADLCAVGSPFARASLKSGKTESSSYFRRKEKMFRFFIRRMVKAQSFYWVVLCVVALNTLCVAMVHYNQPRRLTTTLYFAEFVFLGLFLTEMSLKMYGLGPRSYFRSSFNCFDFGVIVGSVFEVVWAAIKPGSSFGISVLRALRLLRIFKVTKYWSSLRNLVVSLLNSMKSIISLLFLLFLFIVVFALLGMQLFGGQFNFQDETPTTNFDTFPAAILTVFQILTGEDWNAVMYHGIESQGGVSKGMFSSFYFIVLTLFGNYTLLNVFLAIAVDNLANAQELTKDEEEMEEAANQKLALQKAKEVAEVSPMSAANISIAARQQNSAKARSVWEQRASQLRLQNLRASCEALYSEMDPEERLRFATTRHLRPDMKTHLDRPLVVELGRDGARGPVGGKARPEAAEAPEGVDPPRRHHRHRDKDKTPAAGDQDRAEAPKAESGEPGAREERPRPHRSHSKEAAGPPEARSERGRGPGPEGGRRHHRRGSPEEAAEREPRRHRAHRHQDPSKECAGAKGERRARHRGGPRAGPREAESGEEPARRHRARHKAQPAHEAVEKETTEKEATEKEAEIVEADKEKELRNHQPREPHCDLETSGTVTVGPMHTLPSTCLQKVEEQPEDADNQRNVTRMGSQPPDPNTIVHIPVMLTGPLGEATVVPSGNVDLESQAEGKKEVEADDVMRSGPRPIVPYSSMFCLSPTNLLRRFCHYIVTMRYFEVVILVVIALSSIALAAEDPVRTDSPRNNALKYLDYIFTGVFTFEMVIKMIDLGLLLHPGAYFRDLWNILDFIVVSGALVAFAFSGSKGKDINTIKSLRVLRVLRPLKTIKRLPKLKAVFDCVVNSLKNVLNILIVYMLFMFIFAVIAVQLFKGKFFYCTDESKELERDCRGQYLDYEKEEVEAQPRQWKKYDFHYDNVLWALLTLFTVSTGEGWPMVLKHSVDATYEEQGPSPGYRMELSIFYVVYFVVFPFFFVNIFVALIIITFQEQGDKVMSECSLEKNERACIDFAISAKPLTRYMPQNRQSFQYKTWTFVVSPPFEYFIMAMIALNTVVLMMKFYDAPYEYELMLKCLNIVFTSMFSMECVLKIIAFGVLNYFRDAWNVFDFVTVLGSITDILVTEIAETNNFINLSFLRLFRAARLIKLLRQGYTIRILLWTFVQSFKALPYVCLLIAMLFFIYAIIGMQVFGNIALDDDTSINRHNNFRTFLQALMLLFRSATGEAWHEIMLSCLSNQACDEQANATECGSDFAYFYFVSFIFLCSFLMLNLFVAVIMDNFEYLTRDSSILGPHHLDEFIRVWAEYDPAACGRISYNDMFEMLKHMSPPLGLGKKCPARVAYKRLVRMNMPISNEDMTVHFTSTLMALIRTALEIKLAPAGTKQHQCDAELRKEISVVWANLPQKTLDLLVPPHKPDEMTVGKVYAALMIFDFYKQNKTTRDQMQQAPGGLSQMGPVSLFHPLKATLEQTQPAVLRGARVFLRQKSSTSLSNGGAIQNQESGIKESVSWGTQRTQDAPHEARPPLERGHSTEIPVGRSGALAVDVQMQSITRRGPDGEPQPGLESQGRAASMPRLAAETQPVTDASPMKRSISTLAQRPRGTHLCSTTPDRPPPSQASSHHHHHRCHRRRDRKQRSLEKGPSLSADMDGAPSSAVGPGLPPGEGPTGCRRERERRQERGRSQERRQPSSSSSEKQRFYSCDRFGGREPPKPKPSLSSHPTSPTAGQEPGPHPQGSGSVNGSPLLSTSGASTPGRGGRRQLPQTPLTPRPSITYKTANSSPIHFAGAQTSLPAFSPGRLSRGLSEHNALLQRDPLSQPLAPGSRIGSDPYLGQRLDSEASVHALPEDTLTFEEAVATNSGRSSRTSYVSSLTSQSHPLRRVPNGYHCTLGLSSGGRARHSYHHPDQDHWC
Sequence (P54284 whole entry partner): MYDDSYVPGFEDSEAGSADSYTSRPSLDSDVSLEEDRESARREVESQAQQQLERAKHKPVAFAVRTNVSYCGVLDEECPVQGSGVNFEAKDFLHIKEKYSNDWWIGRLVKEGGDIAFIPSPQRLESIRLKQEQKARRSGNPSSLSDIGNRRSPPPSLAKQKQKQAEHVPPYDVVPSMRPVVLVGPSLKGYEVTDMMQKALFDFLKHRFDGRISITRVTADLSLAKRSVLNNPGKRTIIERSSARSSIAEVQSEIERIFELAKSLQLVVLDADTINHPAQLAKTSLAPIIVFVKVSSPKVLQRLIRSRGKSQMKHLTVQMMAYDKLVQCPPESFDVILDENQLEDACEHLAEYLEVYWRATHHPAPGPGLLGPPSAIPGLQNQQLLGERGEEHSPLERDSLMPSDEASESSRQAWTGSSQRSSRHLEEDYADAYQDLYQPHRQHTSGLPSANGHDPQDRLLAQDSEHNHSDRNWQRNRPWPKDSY
Sequence (P54289 25-946 partner limits assumed): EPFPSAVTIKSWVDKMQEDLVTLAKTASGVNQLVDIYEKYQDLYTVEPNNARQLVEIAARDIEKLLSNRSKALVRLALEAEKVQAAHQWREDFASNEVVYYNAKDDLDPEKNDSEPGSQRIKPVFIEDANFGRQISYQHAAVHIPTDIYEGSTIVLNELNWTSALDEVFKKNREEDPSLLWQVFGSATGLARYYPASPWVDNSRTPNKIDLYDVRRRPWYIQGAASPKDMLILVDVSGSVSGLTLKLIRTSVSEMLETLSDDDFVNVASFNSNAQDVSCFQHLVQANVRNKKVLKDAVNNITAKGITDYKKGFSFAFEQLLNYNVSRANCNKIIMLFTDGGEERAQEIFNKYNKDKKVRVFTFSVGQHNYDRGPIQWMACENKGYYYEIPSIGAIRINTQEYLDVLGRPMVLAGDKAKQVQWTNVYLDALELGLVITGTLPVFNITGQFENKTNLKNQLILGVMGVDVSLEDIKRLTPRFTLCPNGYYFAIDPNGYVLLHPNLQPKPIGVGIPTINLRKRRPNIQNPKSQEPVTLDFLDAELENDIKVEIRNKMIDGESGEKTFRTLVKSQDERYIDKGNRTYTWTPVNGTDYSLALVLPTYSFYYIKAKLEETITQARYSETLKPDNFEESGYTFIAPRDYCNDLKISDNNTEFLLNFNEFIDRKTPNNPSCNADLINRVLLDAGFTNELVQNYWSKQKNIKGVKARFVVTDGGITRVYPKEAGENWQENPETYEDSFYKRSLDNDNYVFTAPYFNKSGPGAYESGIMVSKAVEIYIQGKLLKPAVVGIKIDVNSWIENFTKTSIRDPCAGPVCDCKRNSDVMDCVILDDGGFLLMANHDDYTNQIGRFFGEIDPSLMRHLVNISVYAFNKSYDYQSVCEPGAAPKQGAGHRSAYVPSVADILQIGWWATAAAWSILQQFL
Sequence (P54289 947-1103 partner limits assumed): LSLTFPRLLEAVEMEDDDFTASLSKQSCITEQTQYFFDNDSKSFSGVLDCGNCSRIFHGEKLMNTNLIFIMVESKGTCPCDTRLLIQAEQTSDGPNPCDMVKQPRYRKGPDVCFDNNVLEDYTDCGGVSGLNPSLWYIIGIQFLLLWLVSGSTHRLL
experiment-description: Measurement of N-type Ca2+ channel blocking potencies in IMR-32 cells using the fluorescent Ca2+ indicator Indo-1
Type: cell-based
test-parameters: IMR-32 cells, K+ depolarization, 5 μM nitrendipine to block L-type channels; read-out: IMR 32 IC50
Would you please state pIC50, meaning minus log10 of the concentration in mol/L, as a bare number?

Task: Param item = CC(C)C[C@H](NC1CCOCC1)C(=O)N[C@@H](Cc1ccc(OCc2ccccc2)cc1)C(=O)N1CCCCC1 (relative stereo) ; retrieve measured pIC50.
Result: 5.68

Task: Param item = CC(C)C[C@@H](C(=O)N[C@@H](Cc1ccc(OCc2ccccc2)cc1)C(=O)NC(C)(C)C)N(C)Cc1ccco1 (relative stereo) ; retrieve measured pIC50.
Result: 6.05

Task: Param item = CC(C)CCN(C)[C@@H](CC(C)C)C(=O)N[C@@H](Cc1ccc(OCc2ccccc2)cc1)C(=O)NCCc1ccccn1 (relative stereo) ; retrieve measured pIC50.
Result: 6.00

Task: Param item = CC(C)C[C@@H](C(=O)N[C@@H](Cc1ccc(OCc2ccccc2)cc1)C(=O)NCCN1CCCCC1)N(C)C1CCCCC1 (relative stereo) ; retrieve measured pIC50.
Result: 6.06

Task: Param item = CC(C)C[C@H](NC1CCOCC1)C(=O)N[C@@H](Cc1ccc(OCc2ccccc2)cc1)C(=O)NCCN1CCCCC1 (relative stereo) ; retrieve measured pIC50.
Result: 5.59

###

study-system: N-type Ca^2+ Channel (Homo sapiens)
Construct: host or cells: IMR-32 cells differentiated with dibutyryl cAMP and bromodeoxyuridine
experiment-description: Measurement of N-type Ca2+ channel blocking potencies in IMR-32 cells using the fluorescent Ca2+ indicator Indo-1
Assay type: cell-based
test-parameters: IMR-32 cells, K+ depolarization, 5 μM nitrendipine to block L-type channels; read-out: IMR 32 IC50
readout-type: IC50 (nM)
Express the result in nM but write the number alone.

Task: What IC50 appears in the records for this compound with N-type Ca^2+ Channel (Homo sapiens)? CC(C)=CCN[C@@H](CC(C)C)C(=O)N[C@@H](Cc1ccc(OCc2ccccc2)cc1)C(=O)N1CCN(Cc2ccccc2)CC1 (relative stereo)
Result: 700

Task: What IC50 appears in the records for this compound with N-type Ca^2+ Channel (Homo sapiens)? CCN[C@@H](CC(C)C)C(=O)N[C@@H](Cc1ccc(OCc2ccccc2)cc1)C(=O)NC(C)(C)C (relative stereo)
Result: 2000

Task: What IC50 appears in the records for this compound with N-type Ca^2+ Channel (Homo sapiens)? CC(C)C[C@@H](C(=O)N[C@@H](Cc1ccc(OCc2ccccc2)cc1)C(=O)NC(C)(C)C)N(C)Cc1ccc(O)cc1 (relative stereo)
Result: 1300

Task: What IC50 appears in the records for this compound with N-type Ca^2+ Channel (Homo sapiens)? CC(C)C[C@@H](C(=O)N[C@@H](Cc1ccc(OCc2ccccc2)cc1)C(=O)NC(C)(C)C)N(C)CC1CCCCC1 (relative stereo)
Result: 670
